So I've got a bunch of compounds here, and I need their Emax values.
Target: 5HT2C receptors (Homo sapiens)
Sequence (P28335 33-458): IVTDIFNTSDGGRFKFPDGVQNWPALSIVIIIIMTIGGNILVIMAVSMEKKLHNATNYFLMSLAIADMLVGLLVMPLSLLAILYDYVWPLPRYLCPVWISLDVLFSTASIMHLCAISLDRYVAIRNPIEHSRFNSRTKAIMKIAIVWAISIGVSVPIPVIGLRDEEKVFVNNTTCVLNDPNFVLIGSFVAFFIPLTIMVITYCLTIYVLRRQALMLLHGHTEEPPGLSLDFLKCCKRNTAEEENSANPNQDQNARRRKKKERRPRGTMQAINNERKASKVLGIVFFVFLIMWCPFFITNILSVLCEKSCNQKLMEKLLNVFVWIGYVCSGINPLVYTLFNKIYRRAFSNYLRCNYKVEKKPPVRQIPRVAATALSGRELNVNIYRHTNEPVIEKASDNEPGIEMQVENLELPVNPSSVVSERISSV
Assay: Human 5-HT2C functional high throughput screening assay in CHO-K1 cells (calcium flux)
Assay type: cell-based
Design: expressed in transfected cells; host or cells: CHO-K1 cells
Settings: CHO-K1; 5-HT2C; maximum functional response as percentage relative to the effect of serotonin; read-out: Emax
Quick note: give the figure in %, leave out the unit.

Enquiry: State its Emax for this compound: C[C@@H](O)c1cc(-c2ccc3c(c2)C(=O)NC[C@H]2CN(C)C[C@H]32)ccc1F (single isomer, unassigned)
Return: 110

Enquiry: Answer with the recorded Emax of CN1C[C@H]2CNC(=O)c3cc(-c4cccc(S(C)(=O)=O)c4)ccc3[C@@H]2C1 [Example 229] only.
Return: 90

Enquiry: Answer with the recorded Emax for the compound listed here: CCS(=O)(=O)c1cccc(-c2ccc3c(c2)C(=O)NC[C@@H]2CNC[C@@H]32)c1 (relative stereo)
Return: 105

Enquiry: Supply recorded Emax for O=C1NC[C@@H]2CN(Cc3ccccc3)C[C@H]2c2cc3ccccc3cc21 (relative stereo) here.
Return: 90

Enquiry: Report Emax for CC(C)(C)c1ccc(S(=O)(=O)N2Cc3cccnc3[C@@H]3CNC[C@H]3C2)cc1 (relative stereo)
Return: 85

Enquiry: Note Emax for the compound shown: `C[C@@H](O)c1cccc(-c2ccc3c(c2)C(=O)NC[C@H]2CN(C)C[C@H]32)c1`
Return: 100

Enquiry: Report Emax for CN1C[C@H]2CNC(=O)c3cc(CCc4ccccc4)ccc3[C@@H]2C1 (relative stereo)
Return: 90

Enquiry: Item CN1C[C@H]2CNC(=O)c3cc(-c4ccsc4Cl)ccc3[C@@H]2C1 (relative stereo) : provide Emax
Return: 95

Enquiry: Give reported Emax value for CN1C[C@H]2CNC(=O)c3cc(-c4ccc(F)cc4F)ccc3[C@@H]2C1 (relative stereo)
Return: 95

Enquiry: Give Emax for the following compound: `CN1C[C@@H]2CNC(=O)c3cc(-c4ccc5c(c4)C(=O)CC5)ccc3[C@H]2C1`
Return: 90

Enquiry: Indicate its recorded Emax; the compound in question is CC(C)c1cccc(-c2ccc3c(c2)C(=O)NC[C@@H]2CNC[C@@H]32)c1 (relative stereo)
Return: 105

Enquiry: Give recorded Emax. C[C@@H](Cc1ccccc1)Oc1ccc2c(c1)C(=O)NC[C@@H]1CNC[C@@H]21 (mixture of isomers)
Return: 120

Enquiry: Return reported Emax. Input compound: CN1C[C@H]2CNC(=O)c3cc(C(=O)Nc4ccccc4)ccc3[C@@H]2C1 (relative stereo)
Return: 50

Enquiry: // Input: COc1ccc(OC)c(S(=O)(=O)N2Cc3cccnc3[C@@H]3CNC[C@H]3C2)c1 (relative stereo) . Output its Emax only.
Return: 85

Enquiry: For the compound COc1cc(-c2ccc3c(c2)C(=O)NC[C@@H]2CN(C)C[C@@H]32)ccc1F (relative stereo) , give its reported Emax.
Return: 90

Enquiry: For the compound `CC(=O)c1cccc(-c2ccc3c(c2)C(=O)NC[C@H]2CN(C)C[C@H]32)c1` , report Emax.
Return: 120

Enquiry: Supply Emax value. Item: O=C1NC[C@@H]2CN(Cc3ccccc3)C[C@H]2c2ccc(-c3nnco3)cc21 (relative stereo)
Return: 110

Enquiry: Write down Emax measured for item Cc1c(Cl)cccc1S(=O)(=O)N1Cc2cccnc2[C@@H]2CNC[C@H]2C1 (relative stereo)
Return: 90

Enquiry: For the compound CC(=O)c1ccc(-c2ccc3c(c2)C(=O)NC[C@@H]2CNC[C@@H]32)s1 (relative stereo) , give its measured Emax value.
Return: 100
